target-of-assay: CCR2 (Homo sapiens, UniProt P41597)
Construct: host or cells: HEK293T, transient
Sequence (P41597 1-360 isoform P41597-2): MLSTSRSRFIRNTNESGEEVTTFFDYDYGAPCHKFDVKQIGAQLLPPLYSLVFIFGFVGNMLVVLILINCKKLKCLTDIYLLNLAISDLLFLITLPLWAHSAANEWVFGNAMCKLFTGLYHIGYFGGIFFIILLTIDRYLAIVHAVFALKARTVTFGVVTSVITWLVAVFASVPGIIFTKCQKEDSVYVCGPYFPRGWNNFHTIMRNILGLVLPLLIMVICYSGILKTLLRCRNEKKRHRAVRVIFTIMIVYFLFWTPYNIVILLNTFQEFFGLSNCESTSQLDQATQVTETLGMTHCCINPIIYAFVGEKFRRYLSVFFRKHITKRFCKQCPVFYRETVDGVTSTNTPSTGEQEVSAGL
assay-notes: NanoBRET competition binding assay for CCR2 based on 7, as previously reported
assay-context: compound at 20 μM; read-out: % inh. of tracer binding, CCR2
// reported inhibition at 20 µM per item
measured-metric: inhibition at 20 µM (%)

>>> df
                                   compound                      target_of_assay  measurement_units  recorded_measurement
0  O=C(C1=C(O)C(=O)N(CCc2ccc(O)cc2)C1c1ccc(F)cc1)c1ccc(O)cc1 (stereo not drawn)  CCR2 (Homo sapiens, UniProt P41597)                  %                    19
1  O=C(C1=C(O)C(=O)N(CCc2ccc(O)cc2)C1c1ccc(F)cc1)c1ccccc1 (single isomer, unassigned; (-)) [(-)-23]  CCR2 (Homo sapiens, UniProt P41597)                  %                    27
2  O=C(C1=C(O)C(=O)N(CCc2ccc(O)cc2)C1C1CCCCC1)c1ccccc1 (stereo not drawn)  CCR2 (Homo sapiens, UniProt P41597)                  %                    37
3  O=C(C1=C(O)C(=O)N(CCc2ccccc2O)C1c1ccc(F)cc1)c1ccccc1 (stereo not drawn)  CCR2 (Homo sapiens, UniProt P41597)                  %                    49
4  O=C(C1=C(O)C(=O)N(Cc2ccc(O)cc2)C1c1ccc(F)cc1)c1ccccc1 (stereo not drawn)  CCR2 (Homo sapiens, UniProt P41597)                  %                    42
5  O=C(C1=C(O)C(=O)N(CCc2ccc(O)cc2)C1c1ccc(F)cc1)c1ccccc1 (racemic) [compound 23]  CCR2 (Homo sapiens, UniProt P41597)                  %                    -3
6  O=C(C1=C(O)C(=O)N(CCc2ccc(O)cc2)C1c1ccc(Cl)cc1)c1ccccc1 (stereo not drawn)  CCR2 (Homo sapiens, UniProt P41597)                  %                    18
7  CC(=O)C1=C(O)C(=O)N(CCc2ccc(O)cc2)C1C1CCCCC1 (stereo not drawn)  CCR2 (Homo sapiens, UniProt P41597)                  %                    10
8  O=C(C1=C(O)C(=O)N(CCc2ccc(O)cc2)C1c1ccc(Br)cc1)c1ccccc1 (stereo not drawn)  CCR2 (Homo sapiens, UniProt P41597)                  %                    19

* * *

target-of-assay: UniProt:P32246
Sequence (P32246 1-355): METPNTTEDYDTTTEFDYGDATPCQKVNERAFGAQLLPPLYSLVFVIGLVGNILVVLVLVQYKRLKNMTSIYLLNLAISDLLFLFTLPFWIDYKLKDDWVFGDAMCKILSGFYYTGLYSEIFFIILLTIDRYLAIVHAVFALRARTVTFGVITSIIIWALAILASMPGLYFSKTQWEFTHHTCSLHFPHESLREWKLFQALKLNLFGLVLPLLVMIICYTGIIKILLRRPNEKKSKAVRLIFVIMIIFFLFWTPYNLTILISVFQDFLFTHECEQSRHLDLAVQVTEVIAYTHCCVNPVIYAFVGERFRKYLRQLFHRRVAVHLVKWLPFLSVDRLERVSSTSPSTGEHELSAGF
assay-notes: Membrane-based NanoBRET competition assay with 12 (2000 nM) and CCR1_Nluc membranes
Format: binding
Set-up: Promega pNLF1-C (Nluc) #CCR010TN00; host or cells: HEK293T, transient (PEI)
assay-context: 12 (2000 nM), CCR1_Nluc membranes; read-out: Ki, CCR1 (converted)
measured-metric: Ki (nM)

>>> print(df.to_string())
                                   molecule  target_of_assay  measurement_units  recorded_measurement
0  O=C(C1=C(O)C(=O)N(CCc2ccccc2O)C1c1ccc(F)cc1)c1ccccc1 (stereo not shown)   UniProt:P32246                 nM                   291
1  CC(=O)C1=C(O)C(=O)N(c2ccc(Br)cc2F)C1C1CCCCC1 (stereo not shown) [compound 5, reference compound]   UniProt:P32246                 nM                  11.8
2  O=C(C1=C(O)C(=O)N(CCc2ccc(O)cc2)C1c1ccc(F)cc1)c1ccccc1 (single isomer, unassigned; (+)) [(+)-23]   UniProt:P32246                 nM                  65.7
3  O=C(C1=C(O)C(=O)N(c2ccc(Br)cc2F)C1c1ccc(F)cc1)c1ccccc1 (stereo not shown)   UniProt:P32246                 nM                   224

* * *

target-of-assay: CCR1 (Homo sapiens, UniProt P32246)
Sequence (P32246 1-355): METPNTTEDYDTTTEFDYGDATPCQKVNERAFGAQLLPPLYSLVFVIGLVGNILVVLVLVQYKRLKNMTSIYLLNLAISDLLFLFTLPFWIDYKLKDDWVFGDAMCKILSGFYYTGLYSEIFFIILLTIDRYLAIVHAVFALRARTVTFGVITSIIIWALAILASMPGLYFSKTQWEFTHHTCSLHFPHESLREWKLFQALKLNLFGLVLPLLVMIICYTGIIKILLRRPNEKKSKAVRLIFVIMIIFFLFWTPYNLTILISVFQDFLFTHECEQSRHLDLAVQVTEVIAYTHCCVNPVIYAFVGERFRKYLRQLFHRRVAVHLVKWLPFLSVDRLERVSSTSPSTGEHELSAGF
assay-notes: Live cell NanoBRET binding assay, HEK293T cells expressing CCR1_Nluc
Set-up: Promega pNLF1-C (Nluc) #CCR010TN00; host or cells: HEK293T, transient (PEI)
assay-context: 12 (1000 nM), live HEK293T cells; read-out: Ki, live cells
pKi: −log10 of the molar value.
measured-metric: pKi

>>> df
                                   molecule  recorded_measurement
0    NC(=O)CSc1nnc(-c2ccc(Cl)cc2)n1C1CCCCC1                  5.89
1  CC(C)C[C@H](CO)Nc1nc(S[C@@H](C)c2ccccc2)nc2nc(N)sc12 [compound 18, reference compound]                  7.01
2  O=C(C1=C(O)C(=O)N(CCc2ccc(O)cc2)C1c1ccc(F)cc1)c1ccccc1 (racemic)                  6.63
3  CC(=O)C1=C(O)C(=O)N(c2ccc(Br)cc2F)C1C1CCCCC1 (stereo not shown) [compound 5, reference compound]                  7.62

* * *

Ki values, listed per item
target-of-assay: CCR1 (Homo sapiens, UniProt P32246)
Sequence (P32246 1-355): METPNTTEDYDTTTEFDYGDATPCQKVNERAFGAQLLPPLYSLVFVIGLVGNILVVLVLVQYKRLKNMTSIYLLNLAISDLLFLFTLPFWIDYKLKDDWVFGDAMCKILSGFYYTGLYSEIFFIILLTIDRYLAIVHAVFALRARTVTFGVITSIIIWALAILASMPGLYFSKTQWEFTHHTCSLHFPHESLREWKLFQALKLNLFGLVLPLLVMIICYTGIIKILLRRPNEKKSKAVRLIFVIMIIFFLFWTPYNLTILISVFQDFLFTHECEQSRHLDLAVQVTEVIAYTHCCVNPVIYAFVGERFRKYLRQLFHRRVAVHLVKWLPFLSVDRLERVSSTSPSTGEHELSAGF
assay-notes: Membrane-based NanoBRET competition assay with 12 (2000 nM) and CCR1_Nluc membranes
Format: binding
Parameters: Promega pNLF1-C (Nluc) #CCR010TN00; host or cells: HEK293T, transient (PEI)
assay-context: 12 (2000 nM), CCR1_Nluc membranes; read-out: Ki, CCR1 (Figure 5B)
measured-metric: Ki (µM)

                                   molecule                      target_of_assay  measured_metric  measurement_units  recorded_measurement
0  CC(C)(C)c1ccc(S(=O)(=O)Nc2ccc(Cl)cc2-c2cncnc2N)cc1 [compound 22, reference compound]  CCR1 (Homo sapiens, UniProt P32246)               Ki                 µM                  2.95
1  O=C(O)c1ccc(Oc2ncc(Cl)cc2NS(=O)(=O)c2ccc(Cl)c(C(F)(F)F)c2)cc1 [compound 19, reference compound]  CCR1 (Homo sapiens, UniProt P32246)               Ki                 µM                  0.35
2  CC(C)(C)c1ccc(S(=O)(=O)Nc2ccc(Cl)cc2C(=O)c2cc[n+]([O-])cc2)cc1 [compound 21, reference compound]  CCR1 (Homo sapiens, UniProt P32246)               Ki                 µM                  3.13
3  CC[C@@H](Nc1c(Nc2cccc(C(=O)N(C)C)c2O)c(=O)c1=O)c1ccc(C)o1 [compound 20, reference compound]  CCR1 (Homo sapiens, UniProt P32246)               Ki                 µM                  2.34
